molecular target: biotinylated Opr86 extracellular loop synthetic peptide; test: solution biopanning on biotinylated Opr86 loop peptide in Bushnell-Haas pH 8.5 with 1% Jet-A, three rounds; share of clones
readout.kind: % Abundance
Record the result as number plus unit.

Problem: Item: M13 phage displaying OPP3 (LPSTIHR) (peptide) Test system: biotinylated Opr86 extracellular loop synthetic peptide Read-out: % Abundance Value: ?
Result: 2%

Problem: Param readout= % Abundance; system= biotinylated Opr86 extracellular loop synthetic peptide; entry= M13 phage displaying OPP5 (IITMKRR) (peptide) ; returns value.
Result: 3%

Problem: Lab request: please report % Abundance under test system biotinylated Opr86 extracellular loop synthetic peptide for M13 phage displaying OPP2 (MHNLNLL) (peptide)
Result: 2%

Problem: Quick check: % Abundance on biotinylated Opr86 extracellular loop synthetic peptide, item M13 phage displaying OPP1 (PRIRKSH) (peptide) ?
Result: 3%

Problem: Given the entry M13 phage displaying OPP4 (LRPLMNR) (peptide) , what % Abundance was observed with biotinylated Opr86 extracellular loop synthetic peptide?
Result: 3%

Problem: Requested read-out % Abundance, target or system biotinylated Opr86 extracellular loop synthetic peptide, entry M13 phage displaying OPP6 (RKKSRIR) (peptide)
Result: 2%

Recorded values, source patent US20180224449A1.
